system: H5N1N295S virus; type: cell-based, influenza A virus; note: test concentration or dose not given here
Measurement Name: inhibition in the viral HA titer, H5N1N295S

* CCOC(=O)C1=C[C@H](N)C(NC(C)=O)[C@H](OC(CC)CC)C1 (some centres unmarked) [oseltamivir, reference compound] | ≤ 20%
* CC(=O)O[C@@H]1[C@@H](OC(C)=O)[C@H](OCc2cn(Cc3nc4ccccc4s3)nn2)OC[C@H]1OC(C)=O | not more than 50%
* CC(=O)O[C@@H]1[C@@H](OC(C)=O)[C@H](OCc2cn(Cc3nc4ccccc4[nH]3)nn2)OC[C@H]1OC(C)=O | not more than 50%

====

Catalogue of IC50 values
test system: A/chicken/Egypt/B13825A/2017 (H5N1wild); test: microbe, parasite or virus in culture; format: cell-based; conditions: Influenza A virus, read-out: IC50 H5N1wild (Figure 5)
Measurement Name: IC50 (µM)

* CCOC(=O)C1=C[C@H](N)C(NC(C)=O)[C@H](OC(CC)CC)C1 (some centres unmarked) [oseltamivir, reference compound] | 10.1
* CC(=O)OC[C@H]1O[C@@H](OCc2cn(Cc3nc4ccccc4[nH]3)nn2)[C@H](OC(C)=O)[C@@H](OC(C)=O)[C@@H]1OC(C)=O | 325
